Reported inhibition values follow for various compounds
tested on: Tyrosine-protein kinase ABL1 (Homo sapiens), P00519 [H396P]; settings: at 1 µM
Give the value, in units of %, as a plain number.

Recorded results for 3 compounds are shown here.
Looking up c1ccc(Nc2ncc(-c3ccccc3)o2)cc1 , I see its inhibition listed as 20.6

Looking up COc1cc2ncnc(Nc3ccc(C)c(O)c3)c2cc1OC , I see its inhibition listed as 87.4

Looking up NS(=O)(=O)c1cccc(-c2cc3ccncc3cc2OCc2ccccc2)c1 , I see its inhibition listed as 9.55

More entries:
Looking up NC(=O)c1cccc(Nc2nccc(Nc3cccc(F)c3)n2)c1 , I see its inhibition listed as 56.1

Looking up CCOc1nccc2c1nc(-c1nonc1N)n2CC , I see its inhibition listed as 6.55

Looking up CS(=O)(=O)Nc1cccc(-c2ccc3c(NC(=O)C4CC4)n[nH]c3c2)c1 , I see its inhibition listed as 16.8

Looking up COc1cc2ncn(-c3cc(OCc4ccccc4S(C)(=O)=O)c(C#N)s3)c2cc1OC , I see its inhibition listed as 49.5

Looking up Cc1cc(-c2ccccn2)cc(C)c1/C=C/c1cncc(-c2nn[nH]n2)c1 , I see its inhibition listed as 8.77

Looking up CN(C)C(=O)O[C@@H]1CN[C@@H](C#Cc2cc3ncnc(Nc4ccc(OCc5cccc(F)c5)c(Cl)c4)c3s2)C1 , I see its inhibition listed as -1.23

Looking up Nc1nccc(-c2c(-c3ccc(F)cc3)nn3cc(C(F)(F)F)ccc23)n1 , I see its inhibition listed as -0.33

Looking up CN(C)c1cc2c(Nc3ccc4c(cnn4Cc4ccccc4)c3)ncnc2cn1 , I see its inhibition listed as 0.96

Looking up O=S(=O)(CCOCc1ccc(-c2ccc3ncnc(Nc4ccc(OCc5cccc(F)c5)c(Cl)c4)c3c2)o1)c1ccccc1 , I see its inhibition listed as 2.46

Looking up N#Cc1c(NC(=O)c2ccccc2F)sc2c1CCCC2 , I see its inhibition listed as -1.4

Looking up O=C(Nc1ccc(Oc2ccc3[nH]c(NC(=O)c4ccco4)nc3c2)cc1)Nc1cc(C(F)(F)F)ccc1F , I see its inhibition listed as 92

Looking up Cc1ccc(Nc2ccnc(Nc3cccc(C(N)=O)c3)n2)cc1O , I see its inhibition listed as 94.4

---

Reported inhibition values follow for various compounds
tested on: Epidermal growth factor receptor (Homo sapiens), P00533 [L858R,T790M]; conditions: at 0.1 µM
Sequence (P00533 whole entry T790M/L858R, looked up): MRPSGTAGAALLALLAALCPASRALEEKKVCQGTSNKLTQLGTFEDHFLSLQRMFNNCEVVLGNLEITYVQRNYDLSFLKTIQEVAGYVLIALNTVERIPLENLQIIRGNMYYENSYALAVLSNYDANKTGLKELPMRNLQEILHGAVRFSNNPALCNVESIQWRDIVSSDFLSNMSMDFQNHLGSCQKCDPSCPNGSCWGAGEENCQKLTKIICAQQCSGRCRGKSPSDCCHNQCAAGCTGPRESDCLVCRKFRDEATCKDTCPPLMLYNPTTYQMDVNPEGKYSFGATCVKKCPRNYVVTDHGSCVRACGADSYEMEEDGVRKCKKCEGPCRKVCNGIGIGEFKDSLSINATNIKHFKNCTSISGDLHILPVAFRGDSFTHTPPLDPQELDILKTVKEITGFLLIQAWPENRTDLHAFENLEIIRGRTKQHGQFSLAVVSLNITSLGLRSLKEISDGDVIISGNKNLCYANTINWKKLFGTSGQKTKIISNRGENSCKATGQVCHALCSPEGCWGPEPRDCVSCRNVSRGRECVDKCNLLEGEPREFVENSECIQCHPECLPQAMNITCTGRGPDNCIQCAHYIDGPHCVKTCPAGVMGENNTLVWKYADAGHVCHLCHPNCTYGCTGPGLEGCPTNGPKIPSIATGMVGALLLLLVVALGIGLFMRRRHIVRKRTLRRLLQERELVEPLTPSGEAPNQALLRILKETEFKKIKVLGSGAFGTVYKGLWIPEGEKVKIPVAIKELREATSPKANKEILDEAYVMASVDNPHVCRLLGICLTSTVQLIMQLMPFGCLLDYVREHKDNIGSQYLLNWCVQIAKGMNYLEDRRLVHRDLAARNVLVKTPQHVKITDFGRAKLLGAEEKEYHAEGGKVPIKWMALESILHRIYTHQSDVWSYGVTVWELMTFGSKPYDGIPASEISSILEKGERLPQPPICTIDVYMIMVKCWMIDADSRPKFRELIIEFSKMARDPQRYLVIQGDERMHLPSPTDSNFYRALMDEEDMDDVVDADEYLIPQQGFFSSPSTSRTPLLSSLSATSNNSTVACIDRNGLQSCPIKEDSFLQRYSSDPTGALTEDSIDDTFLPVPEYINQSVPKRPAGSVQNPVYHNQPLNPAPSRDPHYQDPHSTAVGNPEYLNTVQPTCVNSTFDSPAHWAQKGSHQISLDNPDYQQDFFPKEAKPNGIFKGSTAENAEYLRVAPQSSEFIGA
Give the value, in units of %, as a plain number.

Recorded results for 5 compounds are shown here.
Looking up COc1cc(/C=N/Nc2ncnc3c2cnn3C(C)C)ccc1O , I see its inhibition listed as -0.23

Looking up Nc1ccc(C#Cc2cncnc2Nc2ccc(OCc3cccc(F)c3)c(Cl)c2)cc1 , I see its inhibition listed as -0.93

Looking up CCS(=O)(=O)c1ccc(OC)c(Nc2ncc(-c3cccc(OC)c3)o2)c1 , I see its inhibition listed as -0.04

Looking up Nc1nccc(-c2c(-c3ccc(F)cc3)ncn2CCCN2CCOCC2)n1 , I see its inhibition listed as 3.71

Looking up c1ccc(Nc2ncc(-c3ccccc3)o2)cc1 , I see its inhibition listed as -0.6

Please look at the following compound next.
Looking up Cc1ccc2c(-c3ccnc(Nc4cccc(C(F)(F)F)c4)n3)c(-c3ccccc3)nn2n1 , I see its inhibition listed as 35.2

---

Reported inhibition values follow for various compounds
molecular target: Tyrosine-protein kinase Lyn (Homo sapiens); details: at 0.1 µM;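 further: mean inhibition of the LYN B splice variant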
Description: GSK_PKIS: LYN B (splice variant) mean inhibition at 0.1 uM [Nanosyn]
Give the value, in units of %, as a plain number.

Recorded results for 3 compounds are shown here.
Looking up N#Cc1c(NC(=O)c2ccccc2F)sc2c1CCCC2 , I see its inhibition listed as -0.31

Looking up Nc1ccc(C#Cc2cncnc2Nc2ccc(OCc3cccc(F)c3)c(Cl)c2)cc1 , I see its inhibition listed as 3.04

Looking up NS(=O)(=O)c1ccc(-c2cc3ccncc3cc2OCc2ccccc2)cc1 , I see its inhibition listed as 4.33

Please look at the following compound next.
Looking up OCc1ccc(-c2nc(-c3ccccn3)c(-c3ccc4c(c3)OCO4)[nH]2)cc1 , I see its inhibition listed as 3.09

---

Biological target: Inhibitor of nuclear factor kappa-B kinase subunit alpha (Homo sapiens) (UniProt O15111);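 further: mean percent inhibition from GSK PKIS profiling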
Sequence (whole entry): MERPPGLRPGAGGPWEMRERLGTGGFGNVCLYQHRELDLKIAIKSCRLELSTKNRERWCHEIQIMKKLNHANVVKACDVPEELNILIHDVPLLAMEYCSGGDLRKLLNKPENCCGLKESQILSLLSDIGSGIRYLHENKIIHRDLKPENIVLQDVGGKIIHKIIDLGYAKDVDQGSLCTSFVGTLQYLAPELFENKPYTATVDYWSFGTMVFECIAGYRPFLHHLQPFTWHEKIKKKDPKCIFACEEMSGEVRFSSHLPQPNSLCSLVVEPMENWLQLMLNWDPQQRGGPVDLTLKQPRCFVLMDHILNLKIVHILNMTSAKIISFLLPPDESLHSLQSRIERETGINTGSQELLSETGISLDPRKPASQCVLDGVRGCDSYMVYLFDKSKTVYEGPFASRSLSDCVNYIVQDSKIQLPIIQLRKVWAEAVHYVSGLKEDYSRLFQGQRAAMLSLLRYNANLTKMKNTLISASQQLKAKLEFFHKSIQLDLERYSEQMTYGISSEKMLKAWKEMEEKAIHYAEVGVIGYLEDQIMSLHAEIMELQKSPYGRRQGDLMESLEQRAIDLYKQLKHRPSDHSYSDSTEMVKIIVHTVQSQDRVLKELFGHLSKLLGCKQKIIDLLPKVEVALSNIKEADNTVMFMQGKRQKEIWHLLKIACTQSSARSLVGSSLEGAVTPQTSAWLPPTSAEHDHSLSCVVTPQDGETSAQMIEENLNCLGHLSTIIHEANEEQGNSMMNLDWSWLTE
Conditions: at 0.1 µM
Property name: inhibition (%)
Give the value, in units of %, as a plain number.

Recorded results for 5 molecules are shown here.
Looking up Cc1ccc(Nc2ccnc(Nc3cccc(C(N)=O)c3)n2)cc1O , I see its inhibition listed as 4.77

Looking up CS(=O)(=O)CCNCc1nc(-c2ccc3ncnc(Nc4ccc(OCc5cccc(C(F)(F)F)c5)cc4)c3c2)cs1 , I see its inhibition listed as -2.52

Looking up O=C(Nc1ccc(Oc2ccc3[nH]c(NC(=O)c4ccco4)nc3c2)cc1)Nc1cc(C(F)(F)F)ccc1F , I see its inhibition listed as 0.68

Looking up CC(C)c1ccc(Nc2nccc(-c3cnn4ncccc34)n2)cc1 , I see its inhibition listed as 18.7

Looking up CN(C)C(=O)O[C@@H]1CN[C@@H](C#Cc2cc3ncnc(Nc4ccc(OCc5cccc(F)c5)c(Cl)c4)c3s2)C1 , I see its inhibition listed as 6.13

More entries:
Looking up NS(=O)(=O)c1cccc(Nc2cc(-c3ccc(F)cc3)n[nH]2)c1 , I see its inhibition listed as 4.35

Looking up COc1cccc(-n2ncc3c(N/N=C/c4ccc(S(C)(=O)=O)cc4)ncnc32)c1 , I see its inhibition listed as -1.85

Looking up Cc1ccc2c(-c3ccnc(Nc4cccc(C(F)(F)F)c4)n3)c(-c3ccccc3)nn2n1 , I see its inhibition listed as 1.79

Looking up CCn1c(-c2nonc2N)nc2ccc(F)cc21 , I see its inhibition listed as 4

---

target: Sphingosine kinase 1 (Homo sapiens) (UniProt Q9NYA1); conditions: at 1 µM;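 further: mean SPHK1 inhibition value reported from the GSK PKIS kinase panel screen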
Sequence (Q9NYA1 whole entry): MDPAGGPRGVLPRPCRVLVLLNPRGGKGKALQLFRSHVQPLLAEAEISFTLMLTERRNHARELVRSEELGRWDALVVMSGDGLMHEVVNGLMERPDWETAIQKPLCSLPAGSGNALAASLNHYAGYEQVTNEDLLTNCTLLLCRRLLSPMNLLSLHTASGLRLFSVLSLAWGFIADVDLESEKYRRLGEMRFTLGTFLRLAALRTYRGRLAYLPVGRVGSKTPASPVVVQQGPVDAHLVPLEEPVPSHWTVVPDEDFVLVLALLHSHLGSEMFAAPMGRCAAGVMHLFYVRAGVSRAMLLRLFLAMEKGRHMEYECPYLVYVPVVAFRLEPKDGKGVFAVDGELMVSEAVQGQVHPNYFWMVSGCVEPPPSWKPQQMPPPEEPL
Property name: inhibition (%)
Give the value, in units of %, as a plain number.

Recorded results for 5 molecules are shown here.
Looking up c1ccc(Nc2ncc(-c3ccccc3)o2)cc1 , I see its inhibition listed as 5.25

Looking up Nc1nccc(-c2c(-c3ccc(F)cc3)ncn2CCCN2CCOCC2)n1 , I see its inhibition listed as -6.06

Looking up OCc1ccc(-c2nc(-c3ccccn3)c(-c3ccc4c(c3)OCO4)[nH]2)cc1 , I see its inhibition listed as -4.68

Looking up NC(=O)c1cccc(Nc2nccc(Nc3cccc(F)c3)n2)c1 , I see its inhibition listed as 0.76

Looking up CN1CCN(C(=O)c2ccc(NC(=O)Nc3ccc(N(C)c4ccnc(Nc5ccc(CS(C)(=O)=O)cc5)n4)cc3)cc2)CC1 , I see its inhibition listed as 2.73

More entries:
Looking up CCS(=O)(=O)c1ccc(OC)c(Nc2ncc(-c3cccc(OC)c3)o2)c1 , I see its inhibition listed as 1.37

Looking up CN(C)c1cc2c(Nc3ccc4c(cnn4Cc4ccccc4)c3)ncnc2cn1 , I see its inhibition listed as -2

Looking up COc1ccc2ncnc(Nc3ccc(OCc4ccccc4)cc3)c2c1 , I see its inhibition listed as -2.59

Looking up COc1cc2ncnc(Nc3ccc(C)c(O)c3)c2cc1OC , I see its inhibition listed as -3.1

Looking up O=C1Nc2ccc(-c3cccnc3)cc2C1=Cc1cc(Br)c(O)c(Br)c1 , I see its inhibition listed as -0.37

---

target: Tyrosine-protein kinase HCK (Homo sapiens) (UniProt P08631); details: at 1 µM;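 further: values are averaged percent inhibition of HCK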
Sequence (P08631 2-526 limits assumed): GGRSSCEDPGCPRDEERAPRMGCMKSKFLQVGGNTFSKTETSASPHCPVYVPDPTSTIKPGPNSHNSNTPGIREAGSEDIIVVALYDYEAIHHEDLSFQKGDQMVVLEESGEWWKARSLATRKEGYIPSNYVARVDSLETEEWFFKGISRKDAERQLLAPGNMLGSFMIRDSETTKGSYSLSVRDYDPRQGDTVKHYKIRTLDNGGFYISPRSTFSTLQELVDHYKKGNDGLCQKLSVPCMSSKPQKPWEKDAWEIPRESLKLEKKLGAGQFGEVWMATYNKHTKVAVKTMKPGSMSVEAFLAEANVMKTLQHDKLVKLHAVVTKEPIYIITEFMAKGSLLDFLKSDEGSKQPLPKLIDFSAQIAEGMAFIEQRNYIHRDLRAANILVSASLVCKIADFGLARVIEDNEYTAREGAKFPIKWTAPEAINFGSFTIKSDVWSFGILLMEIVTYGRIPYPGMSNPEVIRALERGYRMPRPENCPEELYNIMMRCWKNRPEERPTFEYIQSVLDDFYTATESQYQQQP
Label Met when inhibition >= 9%; otherwise Not met.

Exercise: Textbook exercise: given the entry Cc1ccc2c(-c3ccnc(Nc4ccc5c(c4)OCCO5)n3)c(-c3ccc(C(F)(F)F)cc3)nn2n1 , state whether its inhibition is greater than or equal to 9%.
Key: Not met

More entries:
Exercise: Textbook exercise: given the entry Cc1ccc(NC(=O)CC2CC2)cc1-c1ccc(C(=O)NCC2CC2)cc1 , state whether its inhibition is greater than or equal to 9%.
Key: Met

Exercise: Textbook exercise: given the entry CN(c1ccc(NC(=O)Nc2ccc(OC(F)(F)F)cc2)cc1)c1ccnc(Nc2cccc(S(N)(=O)=O)c2)n1 , state whether its inhibition is greater than or equal to 9%.
Key: Met

Exercise: Textbook exercise: given the entry CCn1c(-c2nonc2N)nc2c(C#CC(C)(C)O)nc(OCCNC)cc21 , state whether its inhibition is greater than or equal to 9%.
Key: Not met

Exercise: Textbook exercise: given the entry COc1ccc(-c2nn3ncccc3c2-c2ccnc(Nc3cccc(C(F)(F)F)c3)n2)cc1 , state whether its inhibition is greater than or equal to 9%.
Key: Not met

Exercise: Textbook exercise: given the entry N#Cc1cccc(Nc2nccc(-c3cnn4ncccc34)n2)c1 , state whether its inhibition is greater than or equal to 9%.
Key: Met

Exercise: Textbook exercise: given the entry CN(C)C(=O)O[C@@H]1CN[C@@H](C#Cc2cc3ncnc(Nc4ccc(OCc5cccc(F)c5)c(Cl)c4)c3s2)C1 , state whether its inhibition is greater than or equal to 9%.
Key: Not met

Exercise: Textbook exercise: given the entry COC(=O)c1ccc2c(c1)C(=Cc1cc(Br)c(O)c(Br)c1)C(=O)N2 , state whether its inhibition is greater than or equal to 9%.
Key: Met
